Target: Fes (UniProt P07332)
Sequence (P07332 whole entry, looked up): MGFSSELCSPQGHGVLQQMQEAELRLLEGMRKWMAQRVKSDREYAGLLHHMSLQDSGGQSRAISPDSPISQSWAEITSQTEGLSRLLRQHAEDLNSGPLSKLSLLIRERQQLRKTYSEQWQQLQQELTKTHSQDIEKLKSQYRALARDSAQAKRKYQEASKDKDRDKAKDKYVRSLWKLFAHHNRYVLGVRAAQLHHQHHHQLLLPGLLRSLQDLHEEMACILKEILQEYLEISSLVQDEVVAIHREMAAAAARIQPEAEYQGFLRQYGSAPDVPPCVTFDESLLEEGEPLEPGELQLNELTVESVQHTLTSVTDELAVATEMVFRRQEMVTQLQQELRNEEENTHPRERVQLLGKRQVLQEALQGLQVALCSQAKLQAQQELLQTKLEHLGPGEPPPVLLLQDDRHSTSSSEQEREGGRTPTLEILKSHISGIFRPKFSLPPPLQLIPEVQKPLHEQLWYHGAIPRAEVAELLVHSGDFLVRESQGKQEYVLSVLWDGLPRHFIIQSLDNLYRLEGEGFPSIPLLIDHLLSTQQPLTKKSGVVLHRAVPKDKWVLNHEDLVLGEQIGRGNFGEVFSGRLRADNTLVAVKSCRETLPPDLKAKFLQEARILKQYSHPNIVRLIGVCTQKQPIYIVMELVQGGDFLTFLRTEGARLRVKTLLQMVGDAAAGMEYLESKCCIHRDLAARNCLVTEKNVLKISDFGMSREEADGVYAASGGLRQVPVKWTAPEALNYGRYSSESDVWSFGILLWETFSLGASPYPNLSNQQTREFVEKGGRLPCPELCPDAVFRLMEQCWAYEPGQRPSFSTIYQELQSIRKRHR
Assay: phosphorylation enrichment, bacterial display (enrichment ratio); higher = better substrate or ligand; peptides without Tyr show the background;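 note: 11-residue human phosphosite peptides and single-mutation variants displayed on the E. coli surface, counted by deep sequencing, each peptide's frequency after selection divided by its frequency in the unselected input library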;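 note: frequency after pTyr selection over input frequency; kinase dosed for 20-30% of maximal phosphorylation in three min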
# if value of phosphorylation enrichment reaches 1, tag Fulfilled; if it stays below, tag Not fulfilled

Dear colleague, could you confirm whether LTFHMYADPNI [SOS1_Y618_F623I_YF] has phosphorylation enrichment at or above 1?
Fulfilled

Dear colleague, could you confirm whether FPPTHYIRRVP [SLC4A11_Y820_YF] has phosphorylation enrichment at or above 1?
Not fulfilled

Dear colleague, could you confirm whether EDGFAYVPLKD [PRIM2_Y208] has phosphorylation enrichment at or above 1?
Fulfilled

Dear colleague, could you confirm whether EQKKYYNAMKN [SCN5A_Y1495_K1500N] has phosphorylation enrichment at or above 1?
Not fulfilled

Dear colleague, could you confirm whether VDSLRYIYPKL [EIF2B3_Y92_A87V] has phosphorylation enrichment at or above 1?
Not fulfilled

Dear colleague, could you confirm whether TDGNGYISFNE [LCP1_Y28] has phosphorylation enrichment at or above 1?
Fulfilled

Dear colleague, could you confirm whether KTGDYYDLYGG [PTPN11_Y63_N58K] has phosphorylation enrichment at or above 1?
Fulfilled

Dear colleague, could you confirm whether EQKRFYNAMKK [SCN5A_Y1495_K1493R_YF] has phosphorylation enrichment at or above 1?
Not fulfilled

Dear colleague, could you confirm whether HLLRIYYDITD [MMP27_Y307_W304L] has phosphorylation enrichment at or above 1?
Fulfilled

Dear colleague, could you confirm whether KGELRYMHSRV [ABCD1_Y281] has phosphorylation enrichment at or above 1?
Not fulfilled

Dear colleague, could you confirm whether HSREDYFECFQ [ZIM2_Y411_Q408R] has phosphorylation enrichment at or above 1?
Fulfilled

* * *

System: c-Src
Assay: phosphorylation enrichment, bacterial display (enrichment ratio); higher = better substrate or ligand; peptides without Tyr show the background
# if value of phosphorylation enrichment reaches 0.5, tag rule met; if it stays below, tag rule not met

Record excerpt, results attached:
sequence_entry="HHIDFYKETTN [FGFR1_Y654_K656E_YF]" class_label="rule met"
sequence_entry="IRSGIYFKPES [L2HGDH_Y102_H98R_YF]" class_label="rule met"
sequence_entry="FVHDNYVIRRT [CPS1_Y1450]" class_label="rule met"
sequence_entry="SCTFTYLLGDR [ETHE1_Y38]" class_label="rule met"
sequence_entry="SVQIVYKPVDL [MAPT_Y627]" class_label="rule not met"

Dear colleague, could you confirm whether ADARMYGVHPW [PLP1_Y207_L210H] has phosphorylation enrichment at or above 0.5?
rule met

Dear colleague, could you confirm whether AAVDEYLEYRR [FAM221A_Y17] has phosphorylation enrichment at or above 0.5?
rule met

* * *

// reported phosphorylation enrichment per item
Target: Hck (UniProt P08631)
Sequence (P08631 whole entry, looked up): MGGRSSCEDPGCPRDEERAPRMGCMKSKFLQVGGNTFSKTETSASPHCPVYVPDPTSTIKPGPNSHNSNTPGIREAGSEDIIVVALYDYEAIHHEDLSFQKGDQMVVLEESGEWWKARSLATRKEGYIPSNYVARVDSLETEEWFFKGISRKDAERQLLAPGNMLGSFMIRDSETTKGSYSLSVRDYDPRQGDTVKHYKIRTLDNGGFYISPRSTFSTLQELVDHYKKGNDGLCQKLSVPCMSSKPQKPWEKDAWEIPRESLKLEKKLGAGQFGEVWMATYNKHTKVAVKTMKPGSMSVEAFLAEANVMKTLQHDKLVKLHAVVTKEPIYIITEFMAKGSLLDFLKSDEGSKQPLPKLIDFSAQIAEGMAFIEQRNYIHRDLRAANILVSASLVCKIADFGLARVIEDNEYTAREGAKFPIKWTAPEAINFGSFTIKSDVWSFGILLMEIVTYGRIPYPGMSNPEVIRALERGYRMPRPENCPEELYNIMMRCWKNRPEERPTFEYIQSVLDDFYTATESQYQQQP
Assay: phosphorylation enrichment, bacterial display (enrichment ratio); higher = better substrate or ligand; peptides without Tyr show the background
Write the number on its own, no unit after it.

Below, each entry is followed by its recorded phosphorylation enrichment result.
sequence_entry="SPFEVYVDKSQ [FLNA_Y373]" endpoint="phosphorylation enrichment" observed=0.499
sequence_entry="IEEGTYGVVYR [CDK11B_Y449]" endpoint="phosphorylation enrichment" observed=7.29
sequence_entry="CDTKLYTSVPN [DNTTIP2_Y427_A430V]" endpoint="phosphorylation enrichment" observed=1.01
sequence_entry="NTYEKYLGEEY [TF_Y669]" endpoint="phosphorylation enrichment" observed=0.688
sequence_entry="SRVNKYSTAFG [GJB3_Y16_G12R]" endpoint="phosphorylation enrichment" observed=0.344
sequence_entry="ALVDTYCRHNY [HLA-DRB1_Y107_A103L]" endpoint="phosphorylation enrichment" observed=0.549
sequence_entry="QQLDEYQELLD [LMNA_Y359]" endpoint="phosphorylation enrichment" observed=0.684
sequence_entry="PRLMLYNPTTY [EGFR_Y270_P266R]" endpoint="phosphorylation enrichment" observed=0.692

Please tell me the measured phosphorylation enrichment for DHKRQYELLKL [KIF4B_Y684_R680H] ; system: Hck (UniProt P08631).
0.415

Please tell me the measured phosphorylation enrichment for SFHCSYSEIKD [DCLRE1C_Y322_S320C] ; system: Hck (UniProt P08631).
0.568

Please tell me the measured phosphorylation enrichment for ETRWNYHFEVV [GCNT3_Y267_K266N] ; system: Hck (UniProt P08631).
0.439

Please tell me the measured phosphorylation enrichment for KKCTRYIDCAL [ASPA_Y64_D68A] ; system: Hck (UniProt P08631).
0.356

Please tell me the measured phosphorylation enrichment for LGSWTYPKTVS [ROS1_Y144_T145P] ; system: Hck (UniProt P08631).
0.577

Please tell me the measured phosphorylation enrichment for EDSEFYKAFEE [CASQ2_Y179_YF] ; system: Hck (UniProt P08631).
0.543

Please tell me the measured phosphorylation enrichment for AAARPYHIQKW [ACSBG1_Y677] ; system: Hck (UniProt P08631).
0.543

Please tell me the measured phosphorylation enrichment for EYHRLYEEYTR [PIK3R1_Y467_D464H] ; system: Hck (UniProt P08631).
5.42

* * *

// reported phosphorylation enrichment per item
Tested on: c-Src
Assay: phosphorylation enrichment, bacterial display (enrichment ratio); higher = better substrate or ligand; peptides without Tyr show the background
Write the number on its own, no unit after it.

Below, each entry is followed by its recorded phosphorylation enrichment result.
sequence_entry="SFGENYDNSKS [MAN1B1_Y60]" observed=0.464
sequence_entry="AAARPYHIQKW [ACSBG1_Y677]" observed=0.62
sequence_entry="HAKKNYGNSSV [HDX_Y197]" observed=0.355

Find the measured phosphorylation enrichment of TYGVVYRAKDK [CDK11B_Y453] and report it.
8.45

* * *

System: Fer (mouse)
Test: phosphorylation enrichment, bacterial display (enrichment ratio); higher = better substrate or ligand; peptides without Tyr show the background
// reported phosphorylation enrichment per item
Write the number on its own, no unit after it.

Below, each entry is followed by its recorded phosphorylation enrichment result.
sequence_entry="PLAVPYLDKPP [JMJD7_Y31]" endpoint="phosphorylation enrichment" observed=0.614
sequence_entry="DSFSSYCNAVA [SLC20A2_Y436_YF]" endpoint="phosphorylation enrichment" observed=0.608
sequence_entry="RFLRGYRQHAF [HLA-A_Y137_D140H_YF]" endpoint="phosphorylation enrichment" observed=0.598

Okay, now this sequence:
Find the measured phosphorylation enrichment of PPAPRYHHSAV [LZTR1_Y119] and report it.
0.587

* * *

// reported phosphorylation enrichment per item
Test system: c-Abl (mouse)
Experiment: phosphorylation enrichment, bacterial display (enrichment ratio); higher = better substrate or ligand; peptides without Tyr show the background
Write the number on its own, no unit after it.

sequence_entry="GIVEDYRPPFF [ACVRL1_Y421_YF]" endpoint="phosphorylation enrichment" observed=0.701

Find the measured phosphorylation enrichment of KPPFSYNALIM [FOXG1_Y186] and report it.
0.57

* * *

// reported phosphorylation enrichment per item
System: c-Src
Experiment: phosphorylation enrichment, bacterial display (enrichment ratio); higher = better substrate or ligand; peptides without Tyr show the background
Write the number on its own, no unit after it.

Below, each entry is followed by its recorded phosphorylation enrichment result.
sequence_entry="ILGLEYSLRLP [HELZ2_Y1304_V1308L]" observed=1.08
sequence_entry="GRRNTCFASIA [ACADM_Y352_Y352C_YF]" observed=0.391
sequence_entry="FSDQVYRQRRK [TH_Y230]" observed=0.774
sequence_entry="SPRDTYSDRIG [CTPS1_Y567_S571I]" observed=0.406
sequence_entry="DENWFYTRAAS [RPS19_Y54]" observed=0.418
sequence_entry="APIEDYGGGGG [B4GALT6_Y382]" observed=0.449
sequence_entry="NPETCYQRLKK [TK2_Y190]" observed=0.483
sequence_entry="FGISGYLVDSV [MAP2K3_Y214]" observed=0.504
sequence_entry="MEVGQYIFVKC [CYBB_Y324]" observed=0.463
sequence_entry="HNLFSYPTKHE [MYO3A_Y1396_YF]" observed=0.531

Please tell me the measured phosphorylation enrichment for RVQKRYIFDNV [RCN1_Y115] ; system: c-Src.
0.394

Please tell me the measured phosphorylation enrichment for WCKPLYFSCAV [MMS22L_Y28_P27L] ; system: c-Src.
1.18

Please tell me the measured phosphorylation enrichment for LVSCTYQLARR [FGFR2_Y608_G613R] ; system: c-Src.
0.438

Please tell me the measured phosphorylation enrichment for FFSSEYHCVGG [CTSC_Y345_Y347C_YF] ; system: c-Src.
2.1

Please tell me the measured phosphorylation enrichment for HESEIYGKVCY [CSRP3_Y57_C58G] ; system: c-Src.
6.37
